target: T1, Proleukin® (aldesleukin) (human, UniProt P60568 21-153, limits assumed); assay: ELISA, coated Proleukin, HEK293F supernatant 1:2
T1 construct: Variant of human wt IL-2 with C145S (C125S on mature IL-2); also called IL-2 (Proleukin®); human IL-2 (Proleukin)
T1 sequence (P60568 other isoform, or with tags, fused parts or gaps limits assumed): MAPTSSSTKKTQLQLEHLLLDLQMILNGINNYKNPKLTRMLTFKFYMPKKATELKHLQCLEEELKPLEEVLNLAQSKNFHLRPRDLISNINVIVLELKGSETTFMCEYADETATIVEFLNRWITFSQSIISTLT
MEASUREMENT_LABEL: ELISA value (Normal ELISA)
Put your answer as a value accompanied by its unit after it.

Please fill in: ELISA value (Normal ELISA) reported for Antibody No: 5 (antibody, human IgG1, kappa, N297A, V domains shown, VH WT; VK M33L + A50S; HEK293F supernatant) VH: EVQLVQSGAEVKKPGESLKISCKGSGYAFTNYLIEWVRQMPGKGLEWMGVINPGSGGTNYNEKFKGQVTISADKSISTAYLQWSSLKASDTAMYYCARWRGEGYYAYFDVWGQGTTVTVSS VL: AIRLTQSPSSFSASTGDRVTITCKASQSVDYQGDSYLNWYQQKPGKAPKLLIYSASNLESGVPSRFSGSGSGTDFTLTISSLQSEDFATYYCQQSNEDPYTFGGGTKVEIKR = 4970 luminescence signal

Short answer for Antibody No: 10 (antibody, human IgG1, kappa, N297A, V domains shown, VK M33L + A50S; HEK293F supernatant) VH: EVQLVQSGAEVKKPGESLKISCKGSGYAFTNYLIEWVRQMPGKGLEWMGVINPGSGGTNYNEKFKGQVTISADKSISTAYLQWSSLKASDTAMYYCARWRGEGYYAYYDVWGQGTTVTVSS VL: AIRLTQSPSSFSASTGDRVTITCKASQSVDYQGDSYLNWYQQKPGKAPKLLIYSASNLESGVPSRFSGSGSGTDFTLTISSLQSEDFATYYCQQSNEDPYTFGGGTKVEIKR : ELISA value (Normal ELISA) was 6050 luminescence signal
